- Tested on: NCI-H522
- Experimental Protocol: relative viability (nuclei count vs DMSO), 5 days (fraction); higher = more cells survive
- Details: first compound 0.01 µM
Task for the reader: assign each of the following compounds its reported relative viability.
Numbers only.

I need relative viability for every entry listed below, if you could help.
1. O=c1cc(N2CCOCC2)oc2c(-c3cccc4c3sc3ccccc34)cccc12 + NC(=O)Nc1cc(-c2cccc(F)c2)sc1C(=O)N[C@H]1CCCNC1 [AZD7762] (partner 0.2 µM)
2. CCN(CC)CCCCNc1ncc2cc(-c3cc(OC)cc(OC)c3)c(NC(=O)NC(C)(C)C)nc2n1 + Cc1nc(Nc2ncc(C(=O)Nc3c(C)cccc3Cl)s2)cc(N2CCN(CCO)CC2)n1 [Dasatinib] (partner 0.075 µM)

A:
1: 0.737; 2: 0.862

Working through the 3 compounds below one at a time, give relative viability for each.
1. O=c1cc(N2CCOCC2)oc2c(-c3cccc4c3sc3ccccc34)cccc12 + CC(=O)c1c(C)c2cnc(Nc3ccc(N4CCNCC4)cn3)nc2n(C2CCCC2)c1=O [Palbociclib] (partner 0.5 µM)
2. O=c1cc(N2CCOCC2)oc2c(-c3cccc4c3sc3ccccc34)cccc12 + Nc1ncn([C@H]2C[C@H](O)[C@@H](CO)O2)c(=O)n1 [Decitabine] (partner 2 µM)
3. O=c1cc(N2CCOCC2)oc2c(-c3cccc4c3sc3ccccc34)cccc12 + CC(=O)Nc1cccc(-n2c(=O)n(C3CC3)c(=O)c3c(Nc4ccc(I)cc4F)n(C)c(=O)c(C)c32)c1 [Trametinib] (partner 0.02 µM)

A:
[0.887, 0.709, 0.733]

----------
- Tested on: NCI-H441
- Experimental Protocol: relative viability (nuclei count vs DMSO), 5 days (fraction); higher = more cells survive
- Details: first compound 1 µM
Quantity: relative viability
Give bare numbers.

{"Compound": "O=c1cc(N2CCOCC2)oc2c(-c3cccc4c3sc3ccccc34)cccc12 + CCNC(=O)c1noc(-c2cc(C(C)C)c(O)cc2O)c1-c1ccc(CN2CCOCC2)cc1 [Luminespib] (partner 0.01 µM)", "relative viability": 0.454}
{"Compound": "CCN(CC)CCCCNc1ncc2cc(-c3cc(OC)cc(OC)c3)c(NC(=O)NC(C)(C)C)nc2n1 + C[C@]1(O)C[C@@H](c2nc(-c3ccc4ccc(-c5ccccc5)nc4c3)c3c(N)nccn32)C1 [Linsitinib] (partner 1 µM)", "relative viability": 0.432}
{"Compound": "O=c1cc(N2CCOCC2)oc2c(-c3cccc4c3sc3ccccc34)cccc12 + Cc1cc(Nc2cc(N3CCN(C)CC3)nc(Sc3ccc(NC(=O)C4CC4)cc3)n2)n[nH]1 [Tozasertib] (partner 0.1 µM)", "relative viability": 0.719}

// moving on: another record for relative viability
Q: Entry CCN(CC)CCCCNc1ncc2cc(-c3cc(OC)cc(OC)c3)c(NC(=O)NC(C)(C)C)nc2n1 + Nc1nc2[nH]cc(CCc3ccc(C(=O)N[C@@H](CCC(=O)O)C(=O)O)cc3)c2c(=O)[nH]1 [Pemetrexed] (partner 0.2 µM) has what relative viability?
A: 0.25

----------
- Test system: A-427
- Experimental Protocol: relative viability (nuclei count vs DMSO), 5 days (fraction); higher = more cells survive
- Details: first compound 6.325 µM
For each of the compounds below, state its relative viability.
Numbers only.

{"Compound": "COCC1(CO)C(=O)C2CCN1CC2 (centres undefined) [PRIMA-1MET] + CC(C)C[C@H](NC(=O)[C@H](Cc1ccccc1)NC(=O)c1cnccn1)B(O)O [Bortezomib] (partner 0.002 µM)", "relative viability": 0.839}

Below is a list of compounds. For each, state its recorded relative viability.
1. COCC1(CO)C(=O)C2CCN1CC2 (centres undefined) [PRIMA-1MET] + Nc1nc2[nH]cc(CCc3ccc(C(=O)N[C@@H](CCC(=O)O)C(=O)O)cc3)c2c(=O)[nH]1 [Pemetrexed] (partner 0.2 µM)
2. COCC1(CO)C(=O)C2CCN1CC2 (centres undefined) [PRIMA-1MET] + CS(=O)(=O)N1CCN(Cc2cc3nc(-c4cccc5[nH]ncc45)nc(N4CCOCC4)c3s2)CC1 [Pictilisib] (partner 1 µM)
3. COCC1(CO)C(=O)C2CCN1CC2 (centres undefined) [PRIMA-1MET] + C[C@@H](Oc1cc(-c2cnn(C3CCNCC3)c2)cnc1N)c1c(Cl)ccc(F)c1Cl [Crizotinib] (partner 1 µM)

A:
1.06
0.378
0.959
